system: UACC-62 melanoma; assay: NCI tumour cell line growth inhibition, 48 h
valueType: TGI

-- ask Recorded TGI of COc1ccc2ccc([Se]c3ccc4ccc(OC)cc4c3)cc2c1 , please.
-- reply > 100 µM

-- ask Next record, please: O=[N+]([O-])c1cccc2nccc(NCC(O)CO)c12 (stereo not given)
-- reply 31.5 µM

-- ask Next record, please: COC(=O)N/N=C/c1oc(-c2cccc([N+](=O)[O-])c2)c(-c2cccc([N+](=O)[O-])c2)c1[N+](=O)[O-]
-- reply > 100 µM

-- ask Next record, please: N.N.NC(CS)C(=O)[O-].NC(CS)C(=O)[O-].[Pt+4] (stereo not given)
-- reply > 50 µM

-- ask Next record, please: Cc1ccccc1N(C)S(=O)(=O)c1ccccc1[N+](=O)[O-]
-- reply > 100 µM
